Numbers sourced from PubChem BioAssay AID651724.

Tested on: CtBP / adenovirus E1A interaction (AlphaScreen)
testSummary: qHTS Assay for Inhibitors of the CtBP/E1A Interaction
conditionNotes: AlphaScreen GST-E1A/His-CtBP binding, 1536-well
In all, about 340,000 compounds went through this assay and about 1,700 (0.5%) were called active. Not shown: some 2% with an inconclusive outcome. Rule as the data show it: active = activity change below about -65%; inconclusive = mostly about -30% to -63%; inactive = weaker than that. Many of the other results were omitted from the sample, so actives are more common in it than they were.
Labels: yes for active, no for inactive

CCCOc1ccc(F)cc1-c1cc(C(=O)NCc2ccc(F)cc2)[nH]n1 | no
COc1ccc(CC(=O)NCC(=O)N/N=C/c2cc(Br)ccc2OC)cc1 | yes
CC(=O)Nc1cc(-c2ccccc2F)cn2c(-c3cccc(C(F)(F)F)c3)cnc12 | no
CN1OC[C@@H]2CN(S(=O)(=O)c3cccc(C(F)(F)F)c3)[C@H](c3ccc(-c4cc5ccccc5o4)cc3)C[C@@H]21 | no
CCN(CC)C(=O)C1=C(C)N(Cc2ccc(F)cc2)C(=O)C(CC(=O)NCc2cccc3ccccc23)C1 (centres undefined) | no
CNC(=O)C1CN(C(=O)c2cccc(S(=O)(=O)N3CCc4ccccc43)c2)c2ccccc2O1 (centres undefined) | no
COc1ccc(NC(=O)C2Cc3c(-c4ccc(Cl)cc4)ccnc3O2)cc1 (centres undefined) | no
CCCCNC(=O)C[C@@H]1C[C@@]2(C(=O)OC)CC(C)(C)CC=C2N(Cc2ccco2)C1=O | no
Cc1ccc(OCCOCCOc2ccc(Br)cc2/C=N\NC(=O)c2ccncc2)cc1 | no
